// data source = PubChem BioAssay (NCATS)

TEST: Primary fluorescence-based thiol-reactive (MSTI) qHTS assay for identification of artifact compounds. (AID 1845221); also: nearly all actives have a fitted effect of over 65% in size
CONDITIONS_USED: MSTI thiol-reactivity probe, 1 h; series mostly up to 53.8 µM
Results filed as inconclusive are left out. Activity calls are given as the source filed them. Calls follow the shape of the dose curve; as a rule, active = well fitted inhibition curve with a large enough effect; inconclusive = small, poorly fitted or top-dose-only effect; inactive = no such curve, though single readings can be large or run the other way.
Reply using exactly one outcome from 1 (yes) for active, 0 (no) for inactive

Worked examples, 4 compounds total:
CCC(C)C(=O)O[C@H]1[C@@H](OC(=O)c2ccoc2)C[C@](C)(O)[C@]23OC(C)(C)[C@H](C[C@H](OC(=O)c4ccoc4)[C@]12COC(C)=O)[C@H]3OC(C)=O (stereo not given in full) : 0 (no)
CC1(C)CN(C(=O)c2ccc(-c3cccc4nc(NC(=O)C5CC5)nn34)cc2)C1 : 0 (no)
O=C(Nc1ccccc1)c1ccc(Nc2nnc(-c3ccc(O)cc3)c3ccccc23)cc1 : 0 (no)
C=C1C(=O)O[C@H]2CC(=C)[C@H]3CC[C@@](C)(O)[C@@H]3CC12 (stereo not given in full) : 1 (yes)

Please indicate how the test categorized CNCc1cc(-c2ccccc2F)n(S(=O)(=O)c2cccnc2)c1 .
0 (no)

Please indicate how the test categorized Cc1nc(C#Cc2ccnc(Cl)c2)c(C)n1-c1ccc(OC(F)(F)F)cc1 .
0 (no)

Please indicate how the test categorized C=C[C@H](/C=C\c1ccc(O)cc1)c1ccc(O)cc1 .
0 (no)

Please indicate how the test categorized CCOC(=O)c1csc(Nc2ccc(Cl)cc2)n1 .
0 (no)

Please indicate how the test categorized C=C(C)[C@@H]1CC[C@]2(C(=O)O)CC[C@]3(C(=O)O)[C@H](CCC4[C@@]5(C)CCC(=O)C(C)(C)C5CC[C@]43C)C12 (stereo not given in full) .
0 (no)

Please indicate how the test categorized Nc1ncnc2c1c(-c1ccc(Oc3ccccc3)cc1)nn2[C@@H]1CCCNC1 .
0 (no)

---

TEST: P-glycoprotein substrates identified in KB-3-1 adenocarcinoma cell line, qHTS therapeutic library screen (AID 1346986); also: nearly all actives have a fitted effect of over 60% in size
CONDITIONS_USED: KB-3-1 parental cells viability, CellTiter-Glo, 72 h; series mostly up to 44.5 µM
Inconclusive results are not listed. Calls of active or inactive are those of the source. Calls come from the whole dose curve; as a rule, active = well fitted inhibition curve with a large enough effect; inconclusive = small, poorly fitted or top-dose-only effect; inactive = no such curve, though single readings can be large or run the other way.
Reply using exactly one outcome from active, inactive

Worked examples, 5 compounds total:
Cc1nc(C(=O)N2CCC[C@H]2Cc2nnc(-c3ccccc3)o2)c(-c2ccccc2F)s1 : inactive
C=C(C)C(=O)O[C@H]1[C@H]2C(=C)C(=O)O[C@@H]2/C=C(\CO)CC/C=C(/C=O)[C@@H]1O : inactive
COc1c(C(C)C)c(O)c(O)c2c1C(OC)[C@H]1OC(=O)[C@@]23CCCC(C)(C)[C@H]13 (some centres not stated) : inactive
COc1ccc(C(=O)O[C@H]2C=COC=C3C=C4C(=O)N(C)C(=S)C(=O)N4[C@@H]32)cc1Oc1cc(C=O)ccc1O : inactive
CCN(CC)C(=O)C(c1ccccc1)N1CCN(c2ccc(NC(=O)c3ccccc3-c3cccnc3)cc2F)CC1 (configuration not stated) : inactive

Please indicate how the test categorized C=C(C)C1CCC2(C(=O)O)CCC3(C)C(CCC4C5(C)C(C=O)C(O)C(C)(C)C5CCC43C)C12 (configuration not stated) .
inactive

Please indicate how the test categorized COCCCNC(=O)c1ccc(Cn2c(=O)c3ccccc3n(Cc3ccc(C(C)C)cc3)c2=O)cc1 .
inactive

Please indicate how the test categorized CC(=O)c1c(C)cc2cccc(O)c2c1O[C@@H]1O[C@H](CO)[C@@H](O)[C@H](O)[C@H]1O .
inactive

Please indicate how the test categorized CN1CCN(c2ccc(-c3cccc(CN4CCOCC4)c3)cc2NC(=O)c2c[nH]c(=O)cc2C(F)(F)F)CC1 .
inactive

---

System: astro
TEST: Drug repurposing screens with cells derived from glioblastoma tumor samples (AID 1345199); also: nearly all actives have a fitted effect of over 40% in size
CONDITIONS_USED: viability, ATP luminescence, 48 h; series mostly up to 45.9 µM
Inconclusive results are not listed. Activity calls are given as the source filed them. Calls come from the whole dose curve; as a rule, active = well fitted inhibition curve with a large enough effect; inconclusive = small, poorly fitted or top-dose-only effect; inactive = flat fitted curve, though single readings scatter. Where a SMILES comes first, the peptide text is derived from it. Bridges are numbered along the chain shown (N, C = ends). [ ]: non-standard residue; d: D form. The star is where a group is joined. X2 = CC[C@H](C)CCCCC(=O)*; Dab = NCC[C@H](N)C(=O)O
Reply using exactly one outcome from active, inactive

CC(=O)S[C@@H]1CC2=CC(=O)CC[C@]2(C)[C@H]2CC[C@@]3(C)[C@@H](CC[C@@]34CCC(=O)O4)[C@H]12 : inactive
c1ccc2c(CCC3CCNCC3)c[nH]c2c1 : inactive
CCOC(=O)[C@H](CCc1ccccc1)N[C@H]1CCCN2CCC[C@@H](C(=O)O)N2C1=O : inactive
O=C(CCCN1CCC(n2c(=S)[nH]c3ccccc32)CC1)c1ccc(F)cc1 : inactive
O=C[C@H](O)[C@@H](O)[C@H](O[C@H]1O[C@H](CO)[C@@H](O[C@H]2O[C@H](CO)[C@@H](O)[C@H](O)[C@H]2O)[C@H](O)[C@H]1O)[C@H](O)CO : inactive

Please indicate how the test categorized NCCCC[C@H](NC(=O)[C@@H]1CCCN1C(=O)[C@@H]1CSSC[C@H](NC(=O)CNC(=O)CNC(=O)CN)C(=O)N[C@@H](Cc2ccc(O)cc2)C(=O)N[C@@H](Cc2ccccc2)C(=O)N[C@@H](CCC(N)=O)C(=O)N[C@@H](CC(N)=O)C(=O)N1)C(=O)NCC(N)=O (H-GGGCYFQNCPKG-NH2; disulfide 4-9) .
inactive

Please indicate how the test categorized CCCCCCCCCCCCCCCCCC(=O)OCCO .
inactive

Please indicate how the test categorized CC[C@H](C)CCCCC(=O)N[C@@H](CCN)C(=O)N[C@H](C(=O)N[C@@H](CCN)C(=O)N[C@H]1CCNC(=O)[C@H]([C@@H](C)O)NC(=O)[C@H](CCN)NC(=O)[C@H](CCN)NC(=O)[C@H](CC(C)C)NC(=O)[C@@H](CC(C)C)NC(=O)[C@H](CCN)NC1=O)[C@@H](C)O (X2-[Dab]T[Dab][Dab][Dab][dL]L[Dab][Dab]T; lactam 4-C) .
inactive

---

System: HeLa
TEST: Primary qHTS to identify gynecologic anti-cancer compounds using libraries of approved drugs and bioactive compounds (AID 1345084); also: nearly all actives have a fitted effect of over 55% in size
CONDITIONS_USED: Gynecologic cancer cell panel viability, ATPlite luminescence, 48 h; series mostly up to 57.5 µM
Results filed as inconclusive are left out. Active and inactive are the calls of the source. Calls follow the shape of the dose curve; as a rule, active = well fitted cell-killing curve with a large enough effect; inconclusive = small, poorly fitted or top-dose-only effect, or effect the other way; inactive = flat fitted curve, though single readings scatter.
Reply using exactly one outcome from active, inactive

Worked examples, 3 compounds total:
COc1ccccc1C(=O)Nc1cccc(NC(=O)c2cccc(C)c2)c1 : inactive
O=c1[nH]c2cccc(N3CCN(Cc4ccc(-c5ccccc5)cc4)CC3)c2o1 : inactive
COc1ccc(C#Cc2ccc(C(=O)N3CCC[C@@H](CO)C3)cc2)cc1 : inactive

Please indicate how the test categorized COc1cc(OC)c(NC(=O)c2ccc(Cc3cc4c(cc3C)C(C)(C)CCC4(C)C)o2)c(OC)c1 .
inactive

Please indicate how the test categorized Cc1c(NC(=O)OCC2COCCN2)cn2ncnc(Nc3ccc4c(cnn4Cc4cccc(F)c4)c3)c12 (stereo not given) .
inactive

---

TESTED_SYSTEM: Glutathione peroxidase 1 (Homo sapiens) (UniProt P07203)
Sequence (P07203 whole entry, looked up): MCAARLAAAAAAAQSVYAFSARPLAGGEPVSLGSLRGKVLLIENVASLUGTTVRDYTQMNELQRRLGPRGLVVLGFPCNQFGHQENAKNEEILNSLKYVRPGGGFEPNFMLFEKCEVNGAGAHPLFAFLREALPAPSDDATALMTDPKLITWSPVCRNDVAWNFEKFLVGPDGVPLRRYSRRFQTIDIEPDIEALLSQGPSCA
TEST: Primary qHTS Assay for Inhibitors of Recombinant Selenoprotein Glutathione Peroxidase 1 (GPX1) (AID 1845191); also: nearly all actives have a fitted effect of over 65% in size
CONDITIONS_USED: recombinant GPX1, GR-coupled NADPH fluorescence, 15 min; series mostly up to 48.8 µM
Inconclusive results are not listed. Activity calls are given as the source filed them. The call rests on the fitted dose curve; in most records, active means well fitted inhibition curve with a large enough effect; inconclusive means small, poorly fitted or top-dose-only effect; inactive means flat fitted curve, though single readings scatter.
Reply using exactly one outcome from Yes for active, No for inactive

Please indicate how the test categorized C=C1C(=O)OC2/C=C(\CO)CC/C=C(\C=O)C(O)C(OC(=O)C(C)CC)C12 (centres undefined) .
No

Please indicate how the test categorized N#Cc1ccc(O[C@@H]2c3ccccc3C[C@H]2N2CCC[C@@H](N)C2)c(Cl)c1 .
No

Please indicate how the test categorized CCCc1cc2c(N3CCN(C4=NCC(C)(C)S4)CC3)ncnc2s1 .
No

Please indicate how the test categorized CC(C)c1cccc(C(C)C)c1NC(=O)Nc1ccc(Sc2ccc([N+](=O)[O-])cc2)cc1 .
No

Please indicate how the test categorized CN1CC2CN(c3ccc4oc5ccccc5c(=O)c4c3)CC2C1 (centres undefined) .
No

---

Test system: PA-1
TEST: Primary qHTS to identify gynecologic anti-cancer compounds using libraries of approved drugs and bioactive compounds (AID 1345084); also: nearly all actives have a fitted effect of over 55% in size
CONDITIONS_USED: Gynecologic cancer cell panel viability, ATPlite luminescence, 48 h; series mostly up to 57.5 µM
Results filed as inconclusive are left out. Activity calls are given as the source filed them. Calls come from the whole dose curve; as a rule, active = well fitted cell-killing curve with a large enough effect; inconclusive = small, poorly fitted or top-dose-only effect, or effect the other way; inactive = flat fitted curve, though single readings scatter.
Reply using exactly one outcome from YES for active, NO for inactive

Worked examples, 3 compounds total:
CO[C@@H]1[C@H](O)CCC2(CO2)[C@H]1[C@@]1(C)O[C@@H]1CC=C(C)C (some centres undefined) : NO
NC(=O)c1nc(Nc2ccccc2)sc1NC(=O)C1CCCCC1 : NO
CC(C)OC(=O)N1CCC(Oc2ncnc3c2cnn3-c2ccc(S(C)(=O)=O)cc2F)CC1 : NO

Please indicate how the test categorized C/C1=C\[C@@H](C)C[C@@H](C)[C@@H](Cc2cnco2)OC(=O)/C(C)=C/[C@@H](C)C[C@@H](C)[C@@H](Cc2cnco2)OC1=O .
NO

Please indicate how the test categorized C[C@H](Oc1cc(-n2cnc3ccc(CN4CCN(C)CC4)cc32)sc1C(N)=O)c1ccccc1C(F)(F)F .
YES

Please indicate how the test categorized CN(C)CC#CCCC(=O)C(O)(c1ccccc1)C1CCC1 (centres undefined) .
NO

Please indicate how the test categorized C1=Cc2ccccc2C(=C2CCN(CCCCc3nn[nH]n3)CC2)c2ccccc21 .
NO

Please indicate how the test categorized Cc1c(Cl)cccc1S(=O)(=O)Nc1nc(NCCc2ccccc2)nc2c1CN(Cc1ccccc1)CC2 .
NO
